- procedure-summary: qHTS RealTime-Glo MT Cell Viability Assay in HEK293 cells - 16 hour (AID 1224872); also: nearly all actives have a fitted effect of over 50% in size
- applied-conditions: RealTime-Glo luminescence; series mostly up to 76.8 µM
Records with an inconclusive call do not appear. Activity calls are given as the source filed them. Calls follow the shape of the dose curve; as a rule, active = well fitted cell-killing curve with a large enough effect in the repeat runs; inconclusive = weak or mixed curves, or effect the other way; inactive = flat fitted curve, though single readings scatter.
Allowed answers: 1 (active), 0 (inactive)

Some solved entries appear below for comparison.
stdin: Please let me know the test result on file for `CC(=O)OC1CCCCC1` .
stdout: 0

stdin: Entry to check: CCC(C)c1ccccc1 (configuration not stated)
stdout: 0

stdin: Follow-up entry: `O=C(O)c1cccc(Cl)n1`
stdout: 0

stdin: Same lookup for `CCN(CC)c1cccc(C)c1` , please.
stdout: 0

stdin: Further, for `Clc1cccnc1` ?
stdout: 0

---
stdin: Per the records of this test, what outcome belongs to `CCCCCCCCCCCCN(CCO)CCO` ?
stdout: 1

stdin: Entry to check: `O=S(=O)(O)CCCN1CCOCC1`
stdout: 0

====

- procedure-summary: qHTS assay to identify small molecule antagonists of the vitamin D receptor (VDR) signaling pathway - cell viability counter screen (AID 743225); also: nearly all actives have a fitted effect of over 50% in size
- applied-conditions: VDR-bla HEK293T viability, CellTiter-Glo luminescence, 16 h; series mostly up to 61 µM
Inconclusive results are not listed. Active and inactive are the calls of the source. Calls come from the whole dose curve; as a rule, active = well fitted cell-killing curve with a large enough effect in the repeat runs; inconclusive = weak or mixed curves, or effect the other way; inactive = no such curve, though single readings can be large or run the other way.
Assign a class; possible classes are active, inactive

stdin: Returns: the outcome recorded for `Nc1ncnc2c1ncn2[C@@H]1O[C@H](COP(=O)(O)O)[C@@H](O)[C@H]1O` in this assay.
stdout: active

stdin: Also, O=C1OC(OC(=O)c2cccnc2Nc2cccc(C(F)(F)F)c2)c2ccccc21 (stereo not given) please.
stdout: inactive

stdin: // same read-out, input: `C=CC(=O)OCCOCC(CC)(COCCOC(=O)C=C)COCCOC(=O)C=C`
stdout: active

stdin: # iterate: `O=Nc1ccc(NO)cc1`
stdout: inactive

stdin: Try this molecule next: `CC1(C)C(=O)N(Br)C(=O)N1Br`
stdout: inactive

stdin: And for `N#CSCSc1nc2ccccc2s1` ?
stdout: active

stdin: Next up: `O=C(O)Cc1ccc(OCCNC[C@H](O)c2ccccc2)cc1`
stdout: inactive

stdin: Ok, now `C=C[C@](C)(O)CC[C@@H]1[C@@]2(C)CCCC(C)(C)[C@@H]2CC[C@@]1(C)O`
stdout: active

Now let's try a different one.
stdin: Answer briefly: the call reported for `CCN(CC)CCOC(=O)C1(C2CCCCC2)CCCCC1` in this assay.
stdout: inactive

====

- procedure-summary: qHTS assay to identify small molecule antagonists of the vitamin D receptor (VDR) signaling pathway - cell viability counter screen (AID 743225); also: nearly all actives have a fitted effect of over 50% in size
- applied-conditions: VDR-bla HEK293T viability, CellTiter-Glo luminescence, 16 h; series mostly up to 61 µM
Inconclusive results are not listed. The source made the active and inactive calls. Calls come from the whole dose curve; as a rule, active = well fitted cell-killing curve with a large enough effect in the repeat runs; inconclusive = weak or mixed curves, or effect the other way; inactive = no such curve, though single readings can be large or run the other way.
// allowed return values: 1.0 = active, 0.0 = inactive

stdin: Recorded call for CCNc1nc(NC(C)CC)nc(OC)n1 (stereo unspecified) ?
stdout: 0.0

stdin: Then what about the compound `NCCCCCCNCCCCCCN` ?
stdout: 0.0

stdin: Entry to check: `[O]=[Zr]`
stdout: 0.0

stdin: Follow-up entry: `CCCCCCOc1ccc(O)cc1`
stdout: 0.0

stdin: Also, `Cc1nc(Nc2ncc(C(=O)Nc3c(C)cccc3Cl)s2)cc(N2CCN(CCO)CC2)n1` please.
stdout: 0.0

stdin: Consider next the compound `CC(C)(C)c1cc(/C=C2\SC(=N)NC2=O)cc(C(C)(C)C)c1O` in the same way.
stdout: 1.0
